test system: HEK293 cells; experiment: Preliminary screening as DNA vectors, GFP transfection of HEK293 cells; assay type: cell-based; settings: amino lipid/DOPE liposome with 75 ng plasmid DNA (psin-EGFP-IRES-Puro); number of GFP-expressing cells divided by total nuclei (Hoechst)
The threshold is 4%. Values of Absolute DNA transfection efficiency in HEK293 cells beneath it are tagged condition met; values meeting or exceeding it are tagged condition not met.

// known answers, use as guide
{"columns": ["Compound", "Qualitative label"],
 "data": [
  ["CCCCCCCCCCCCCCCNc1nc(NCCN2CCOCC2)nc(SCCCCCCCCCCC)n1 [S11N15 D2]", "condition met"],
  ["CCCCCCCCCCCCCCCCCCNc1nc(NCCN2CCOCC2)nc(SCCCCCCCCCCCCCC)n1 [S14N18 D2]", "condition met"],
  ["CCCCCCCCNc1nc(NCCN2CCCC2)nc(SCCCCCCC)n1", "condition not met"],
  ["CCCCCCCCCCCCCCCCNc1nc(NCCN(CC)CC)nc(SCCCCCCCCCCCCCCC)n1", "condition met"],
  ["CCCCCCCCCCCCCCCCSc1nc(NCCCCCCC)nc(NCCCN2CCOCC2)n1", "condition not met"]
]}

Task: Answer whether the compound `CCCCCCCCCCCCCCCCNc1nc(NCCN2CCN(C)CC2)nc(SCCCCCCCCCCCCCCCC)n1` has Absolute DNA transfection efficiency in HEK293 cells strictly less than 4%
Output: condition met

Task: Is 4% strictly greater than the compound's reported Absolute DNA transfection efficiency in HEK293 cells? compound: CCCCCCCCCCCCNc1nc(NCCN(C)C)nc(SCCCCCCCCCC)n1 [S10N12 D1]
Output: condition met

Task: Find out if reported Absolute DNA transfection efficiency in HEK293 cells for `CCCCCCCCCNc1nc(NCCN2CCCC2)nc(SCCCCCCCCC)n1` is less than 4%
Output: condition not met

Task: A record lists CCCCCCCCCCCSc1nc(NCCCCCCCCC)nc(NCCN2CCOCC2)n1 [S11N9 D2] . Is its Absolute DNA transfection efficiency in HEK293 cells below 4%?
Output: condition not met

Task: Absolute DNA transfection efficiency in HEK293 cells strictly < 4% for this compound? `CCCCCCCCCCCCCCSc1nc(NCCCN(C)C)nc(SCCCCCCC)n1`
Output: condition not met

---

system: HEK293 cells; experiment: Preliminary screening as DNA vectors, GFP transfection of HEK293 cells; assay type: cell-based; settings: amino lipid/DOPE liposome with 75 ng plasmid DNA (psin-EGFP-IRES-Puro); number of GFP-expressing cells divided by total nuclei (Hoechst)
Observation type: Absolute DNA transfection efficiency in HEK293 cells (%)
Numbers only, in %.

{"columns": ["Compound", "Assayed system", "Meas value"],
 "data": [
  ["CCCCCCCCCCCCN(CCCCCCCCCCCC)c1nc(NCCN2CCCCC2)nc(SCCCCCC)n1", "HEK293 cells", 0.1],
  ["CCCCCCCCCCCCN(CCCCCCCCCCCC)c1nc(NCCCN2CCOCC2)nc(SCCCCCC)n1", "HEK293 cells", 0.0],
  ["CCCCCCCCCCCCNc1nc(NCCN2CCCC2)nc(SCCCCCCCCCCCC)n1", "HEK293 cells", 31.4],
  ["CCCCCCCCCCCCNc1nc(NCCCN(C)C)nc(SCCCCCCCCCC)n1", "HEK293 cells", 19.8],
  ["CCCCCCCCCCCCCCCCCCSc1nc(NCCCCCCCCCCCCCCC)nc(NCCCN2CCN(C)CC2)n1", "HEK293 cells", 0.1],
  ["CCCCCCCCCCCCN(CCCCCCCCCCCC)c1nc(NCCN2CCCCC2)nc(SCCCCCCCCC)n1", "HEK293 cells", 0.0],
  ["CCCCCCCCCCCCCCCSc1nc(NCCN2CCCC2)nc(SCCCCCCC)n1", "HEK293 cells", 4.6],
  ["CCCCCCCCCCCCCCCNc1nc(NCCN(C)C)nc(SCCCCCCCCCCCCCC)n1 [S14N15 D1]", "HEK293 cells", 0.4]
]}

Report Absolute DNA transfection efficiency in HEK293 cells for each item below.
1. CCCCCCCCCCCCCNc1nc(NCCN2CCN(C)CC2)nc(SCCCCCCC)n1
2. CCCCCCCCCCCCCCCSc1nc(NCCN(CC)CC)nc(SCCCCCCC)n1
3. CCCCCCCCCCCCCCCCSc1nc(NCCN2CCCC2)nc(N(CCCCCCCCCCCC)CCCCCCCCCCCC)n1
4. CCCCCCCCNc1nc(NCCCN(C)C)nc(SCCCCCCCC)n1
5. CCCCCCCCCCCCN(CCCCCCCCCCCC)c1nc(NCCCN(C)C)nc(SCCCCCCC)n1
6. CCCCCCCCCCCCN(CCCCCCCCCCCC)c1nc(NCCN2CCCCC2)nc(SCCCCCCC)n1
7. CCCCCCCCCCCCCCCCSc1nc(NCCCCCCCCCCCCCCC)nc(NCCN2CCN(C)CC2)n1
8. CCCCCCCCCSc1nc(NCCN2CCCCC2)nc(SCCCCCC)n1

Output:
1: 23.3; 2: 5.0; 3: 0.0; 4: 8.7; 5: 0.6; 6: 0.0; 7: 0.3; 8: 1.8
